Reference source: paper PMC10021056

Target: prefusion-stabilized NiV F (NiVop08) (Nipah virus, Malaysian strain, stabilised)

>  <binder>
201805_NiV_PL4_F4 (antibody, V domains shown) VH: EFQLQQSGPEVVKPGASVKISCKTSGYSFTDYNMNWVKQSNGKSLEWIGVINPNYGTTTYNQKFRGKATLTVDQSSSTAYMQLNSLTSEDSAVYYCARAPDYYGINFYFDYWGQGTTLTVSA VL: DVVMTQSPLSLPVSLGDQASISCRSSQSLVHSNGDTYLHWYLQKPGQSPKLLIYKVSNRFSGVPDRFSGSGSGTDFTLKISRVEAEDLGVYFCSQSTHVPPWTFGGGTKLEIK

>  <binding result>
binds

$$$$
